Test system: HepG2
Test: GSK_TCMDC: Percent inhibition of human HepG2 cell line. Test compounds present at 10uM.
Type: functional
Is Inhibition at least 20%? Then Criterion met. If not, Criterion not met.

Query block: Answer whether Inhibition of Cl.N#Cc1ccc2c(c1)CCN(CCC1CCC(NC(=O)Nc3cnc4ccccc4c3)CC1)C2 (centres undefined) is greater than or equal to 20%.
Result block: Criterion not met

Query block: And then COc1ccc(CNCc2ccc(-c3ccc(-c4nc5ccccc5[nH]4)cc3)cc2)cc1.O=C(O)C(F)(F)F , what is it?
Result block: Criterion met

Query block: And then COc1ccc2c(OC)ccc(CNCCCCCCNCc3ccc(OC)c4ccc(OC)cc34)c2c1.CS(=O)(=O)O , what is it?
Result block: Criterion met

Query block: And then COc1ccc(O)c(C(=O)c2cc(C#N)c(=O)n(-c3ccc(Oc4ccccc4)cc3)c2)c1 , what is it?
Result block: Criterion met

Query block: And then O=C(/C=C/c1ccc(Cl)c(Cl)c1)NCCCCCN1CCC(C(=O)Nc2ccc3c(c2)OCO3)CC1 , what is it?
Result block: Criterion not met

Query block: And then CC(C)n1cc(CN2CCCC(C(=O)Nc3cccc(-c4cc5ccccc5[nH]4)c3)C2)cn1 (centres undefined) , what is it?
Result block: Criterion met

Query block: And then Cl.O=c1cc(NCCCNCc2ccc(Cl)c(Cl)c2)[nH]c2cc(Cl)ccc12 , what is it?
Result block: Criterion not met

Query block: And then Br.N=C(N)Nc1nc(-c2cc(NC(=O)C(F)(F)F)cc([N+](=O)[O-])c2)cs1 , what is it?
Result block: Criterion not met

Query block: And then Br.COc1cc(CCON2C(N)=NC(N)=NC2(C)C)cc(OC)c1OC , what is it?
Result block: Criterion met

Query block: And then COc1ccc(CCNc2ccnc3cc(Cl)ccc23)cc1OC.Cl , what is it?
Result block: Criterion not met

Query block: And then O=C(O)C(F)(F)F.O=S(=O)(NCCN1CCCC1)c1ccc(-c2cccc(CNCc3ccc(F)cc3)c2)cc1 , what is it?
Result block: Criterion met

Query block: And then O=C(O)C(F)(F)F.OCC1CCN(Cc2ccc(-c3ccc(-c4nc5cc(F)ccc5[nH]4)cc3)cc2)CC1 , what is it?
Result block: Criterion not met

Query block: And then O=C(Nc1ccc(Cl)cc1)Nc1cccc(-c2cccc(-c3nc4ccccc4[nH]3)c2)c1 , what is it?
Result block: Criterion met

Query block: And then CC(=O)Nc1cccc(Nc2nccc(Nc3ccc(Oc4ccccc4)cc3)n2)c1.Cl , what is it?
Result block: Criterion not met

Query block: And then CC(Sc1nnc(-c2cccs2)[nH]1)C(=O)c1c[nH]c2ccccc12 (centres undefined) , what is it?
Result block: Criterion not met

Query block: And then CS(=O)(=O)Nc1cccc(-c2cnc3[nH]cc(-c4ccc(CCC(=O)O)cc4)c3c2)c1 , what is it?
Result block: Criterion not met

Query block: And then CCN(Cc1ccccc1)C1CCN(Cc2cc(Br)ccc2O)CC1.O=C(O)C(=O)O , what is it?
Result block: Criterion not met

Query block: And then COc1ccc(CN2CCC(NCc3cccc([N+](=O)[O-])c3)CC2)cc1.O=C(O)C(F)(F)F , what is it?
Result block: Criterion not met

Query block: And then CC(C)CNCc1ccc(-c2cccc(CNc3ccc4ncccc4c3)c2)cc1.O=C(O)C(F)(F)F , what is it?
Result block: Criterion met
